- Tested on: KRAS patient-derived spheroids with HUVEC/MSC, viability
- Measurement Notes: Anticancer human tumor 941728-121-R-J1-PDC patient-derived lung adenocarcinoma cell line growth inhibition [KRAS2]; active means viability on the fitted dose curve at most 10% of control; inactive means the rest
- Study Conditions: second compound 10 µM; first compound 0.1 µM
Classes used: 1 for active, -1 for inactive

INSERT INTO results (compound, measured_on, cat) VALUES
  ('CCN1CCN(Cc2ccc(Nc3ncc(F)c(-c4cc(F)c5nc(C)n(C(C)C)c5c4)n3)nc2)CC1 + CNCc1ccccc1-c1csc(C(C)Nc2nc(C)nc3cc(OC)c(OC)cc23)c1', 'KRAS patient-derived spheroids with HUVEC/MSC, viability', 1),
  ('CC1COCCN1c1cc(-c2ccnn2C)c2ccnc(-c3ccn[nH]3)c2n1 (stereo not drawn) + C=CC(=O)N1CCN(c2nc(=O)n(-c3c(C)ccnc3C(C)C)c3nc(-c4c(O)cccc4F)c(F)cc23)C(C)C1', 'KRAS patient-derived spheroids with HUVEC/MSC, viability', -1),
  ('Cn1ncnc1[C@H]1c2n[nH]c(=O)c3cc(F)cc(c23)N[C@@H]1c1ccc(F)cc1 + COc1cc2nc(C)nc(NC(C)c3cc(N)cc(C(F)(F)F)c3)c2cc1OC1CCOC1', 'KRAS patient-derived spheroids with HUVEC/MSC, viability', 1);

====

Recorded pIC50 for the following compounds
- System: KRAS patient-derived spheroids with HUVEC/MSC, viability
- Measurement Notes: Anticancer human tumor 941728-121-R-J1-PDC cell line growth inhibition [KRAS2];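 further: spheroids exposed to agents for seven days before readout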
- Study Conditions: curve of first compound; second compound 1 µM
pIC50: −log10 of the molar value.
Readout Type: pIC50

INSERT INTO assay_data (compound, measured_on, readout_type, reported_value) VALUES
  ('CC1(C)CCC(CN2CCN(c3ccc(C(=O)NS(=O)(=O)c4ccc(NCC5CCOCC5)c([N+](=O)[O-])c4)c(Oc4cnc5[nH]ccc5c4)c3)CC2)=C(c2ccc(Cl)cc2)C1 + CC1OCC2(CCN(c3cnc(Sc4ccnc(N)c4Cl)c(N)n3)CC2)C1N', 'KRAS patient-derived spheroids with HUVEC/MSC, viability', 'pIC50', '> 7.50'),
  ('CC(C)NCC(C(=O)N1CCN(c2ncnc3c2C(C)CC3O)CC1)c1ccc(Cl)cc1 (stereo not drawn) + C=CC(=O)N1CCN(c2nc(=O)n(-c3c(C)ccnc3C(C)C)c3nc(-c4c(O)cccc4F)c(F)cc23)C(C)C1', 'KRAS patient-derived spheroids with HUVEC/MSC, viability', 'pIC50', '> 7.50'),
  ('CC1(C)CCC(CN2CCN(c3ccc(C(=O)NS(=O)(=O)c4ccc(NCC5CCOCC5)c([N+](=O)[O-])c4)c(Oc4cnc5[nH]ccc5c4)c3)CC2)=C(c2ccc(Cl)cc2)C1 + C=CC(=O)N1CCN(c2nc(OCC3CCCN3C)nc3c2CCN(c2cccc4cccc(C)c24)C3)CC1CC#N', 'KRAS patient-derived spheroids with HUVEC/MSC, viability', 'pIC50', '> 7.50');

====

- Tested on: KRAS patient-derived spheroids with HUVEC/MSC, viability
- Measurement Notes: Anticancer human tumor 941728-121-R-J1-PDC cell line growth inhibition [KRAS2];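 further: spheroids exposed to agents for seven days before readout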
- Study Conditions: second compound 10 µM; first compound 0.001 µM; stronger effect = lower value
Readout Type: viability, T/C (%)

INSERT INTO results (compound, measured_on, reported_value) VALUES
  ('CC(C)n1nc(-c2ccc3oc(N)nc3c2)c2c(N)ncnc21 + CNCc1ccccc1-c1csc(C(C)Nc2nc(C)nc3cc(OC)c(OC)cc23)c1', 'KRAS patient-derived spheroids with HUVEC/MSC, viability', 0.43),
  ('CC(C)n1nc(-c2ccc3oc(N)nc3c2)c2c(N)ncnc21 + CC1OCC2(CCN(c3cnc(Sc4ccnc(N)c4Cl)c(N)n3)CC2)C1N', 'KRAS patient-derived spheroids with HUVEC/MSC, viability', 11.2),
  ('CN(C)C/C=C/C(=O)Nc1cc2c(Nc3ccc(F)c(Cl)c3)ncnc2cc1O[C@H]1CCOC1 + CC1OCC2(CCN(c3cnc(Sc4ccnc(N)c4Cl)c(N)n3)CC2)C1N', 'KRAS patient-derived spheroids with HUVEC/MSC, viability', 45),
  ('CC(C)n1nc(-c2ccc3oc(N)nc3c2)c2c(N)ncnc21 + C=CC(=O)N1CCN(c2nc(=O)n(-c3c(C)ccnc3C(C)C)c3nc(-c4c(O)cccc4F)c(F)cc23)C(C)C1', 'KRAS patient-derived spheroids with HUVEC/MSC, viability', 16.8),
  ('CC(=O)Nc1cccc(-n2c(=O)n(C3CC3)c(=O)c3c(Nc4ccc(I)cc4F)n(C)c(=O)c(C)c32)c1 + CNCc1ccccc1-c1csc(C(C)Nc2nc(C)nc3cc(OC)c(OC)cc23)c1', 'KRAS patient-derived spheroids with HUVEC/MSC, viability', 0.17),
  ('CN(C)C/C=C/C(=O)Nc1cc2c(Nc3ccc(F)c(Cl)c3)ncnc2cc1O[C@H]1CCOC1 + COc1cc2nc(C)nc(NC(C)c3cc(N)cc(C(F)(F)F)c3)c2cc1OC1CCOC1', 'KRAS patient-derived spheroids with HUVEC/MSC, viability', 15.2),
  ('CC(C)n1nc(-c2ccc3oc(N)nc3c2)c2c(N)ncnc21 + COc1cc2nc(C)nc(NC(C)c3cc(N)cc(C(F)(F)F)c3)c2cc1OC1CCOC1', 'KRAS patient-derived spheroids with HUVEC/MSC, viability', 6.39),
  ('Cn1ncnc1[C@H]1c2n[nH]c(=O)c3cc(F)cc(c23)N[C@@H]1c1ccc(F)cc1 + CC1OCC2(CCN(c3cnc(Sc4ccnc(N)c4Cl)c(N)n3)CC2)C1N', 'KRAS patient-derived spheroids with HUVEC/MSC, viability', 21.5);
